Test system: BDF1 mice, B16 melanoma ip, median survival T/C
RUN DESCRIPTION: NCI In Vivo Anticancer Drug Screen. Data for tumor model B16 Melanoma (intraperitoneal) in B6D2F1 (BDF1) mice
DETAILS: endpoint: median survival time; dose: 12.5 mg/kg/injection; schedule: Q01DX009 (ip); vehicle: saline with Tween-80
Toxic doses and inconclusive results are not listed. The calls were made as follows: active = survival T/C of 150% or more; inactive = T/C below 125% in these data.
Classes used: active, inactive

O=C(Nc1ccc(C2=NCCN2)cc1)c1ccc(C(=O)Nc2ccc(C3=NCCN3)cc2)c(Cl)c1 ... inactive
CC1(C)OC2C(COC(=O)c3ccc([N+](=O)[O-])cc3)OC(NC(=O)N(CCCl)N=O)C2O1 (stereo not drawn) ... active
CCCCCCC#CC(=O)OC ... inactive
O=C(NC(CSCc1ccccc1)C(=O)O)OCc1ccccc1 (stereo not drawn) ... inactive
CC(C)CC(NC(=O)CNC(=O)/C=C/c1ccco1)C(N)=O (stereo not drawn) ... inactive
CSc1nc(Cl)c(Br)c(Cl)n1 ... inactive
CC1(C)N=C(N)N=C(N)N1c1ccc(OCCNS(=O)(=O)c2cccc(S(=O)(=O)F)c2)c(Cl)c1 ... inactive
COc1ccccc1NC(=O)Nc1cccc(Cl)c1 ... inactive

----------
Test system: BDF1 mice, B16 melanoma ip, median survival T/C
RUN DESCRIPTION: NCI In Vivo Anticancer Drug Screen. Data for tumor model B16 Melanoma (intraperitoneal) in B6D2F1 (BDF1) mice
DETAILS: endpoint: median survival time; dose: 100.0 mg/kg/injection; schedule: Q01DX009 (ip); vehicle: saline; higher = longer survival
Toxic doses and inconclusive results are not listed.
Each entry below lists one item and its recorded T/C value.
READOUT KIND: T/C

N=C(N)SCc1cccc2c(=O)cc(-c3ccccc3)oc12 ... 111 % of control
CC(C)(N)Cc1ccc(Cl)cc1 ... 100 % of control
NC(=O)CC(N)C(=O)O (stereo not given) ... 92 % of control
CC(=O)CC(=O)Nc1ccc(C)c(C)c1 ... 92 % of control
OC(CBr)C(O)C(O)C(O)CBr (stereo not given) ... 107 % of control
SCc1ccccn1 ... 112 % of control
CC(N)C(=O)NC(C(=O)O)C(C)O (stereo not given) ... 97 % of control
Nc1ncnc2c1c1c(N)[nH]nc1n2C1OC(CO)C(O)C1O (stereo not given) ... 95 % of control
CN=C(N)NC ... 98 % of control
CCCOCC(O)CO (stereo not given) ... 118 % of control
CCN(CC)CCOC(=O)c1cccnc1 ... 102 % of control
NC(=O)c1ncc[nH]c1=O ... 124 % of control
CCN(CC)CCOC(=O)CC1CCCCC1 ... 96 % of control
Clc1cc(Cl)c(C[N+]23CN4CN(CN(C4)C2)C3)cc1Cl ... 111 % of control
CC1=Nc2ccccc2/C1=C\c1c(C)[nH]c2ccccc12 ... 121 % of control

----------
System: BDF1 mice, B16 melanoma ip, median survival T/C
RUN DESCRIPTION: NCI In Vivo Anticancer Drug Screen. Data for tumor model B16 Melanoma (intraperitoneal) in B6D2F1 (BDF1) mice
DETAILS: endpoint: median survival time; dose: 100.0 mg/kg/injection; schedule: Q01DX009 (ip); vehicle: saline with Tween-80; higher = longer survival
Toxic doses and inconclusive results are not listed.
READOUT KIND: T/C

O=S(=O)(Nc1ccc(O)cc1)c1ccccc1 ... 97 % of control
CCCCCCC(=O)/C=C/c1cccc(OCOCC)c1 ... 98 % of control
CCC1(CC)CCC(Br)C(Br)C1 (configuration not stated) ... 95 % of control
CC12COC(=O)CC1CCC1C2CCC2(C)C1CCC2(C)O (configuration not stated) ... 94 % of control
CCN(CC)c1nc(Cl)nc(NC(C)C)n1 ... 97 % of control
O=[N+]([O-])c1ccc(Sc2ccncn2)c([N+](=O)[O-])c1 ... 108 % of control
c1ccc(Cc2ccccc2)cc1 ... 89 % of control

----------
System: BDF1 mice, B16 melanoma ip, median survival T/C
RUN DESCRIPTION: NCI In Vivo Anticancer Drug Screen. Data for tumor model B16 Melanoma (intraperitoneal) in B6D2F1 (BDF1) mice
DETAILS: endpoint: median survival time; dose: 2.0 mg/kg/injection; schedule: Q01DX009 (ip); vehicle: saline; higher = longer survival
Experimental: The antitumor activity of compounds was measured in mice bearing transplantable tumors. Survival or tumor size were measured and the results are expressed as the measurement made in the treated group (T) divided by the measurement made in the vehicle treated control group (C). The tumor model used in this assay is B16 Melanoma (intraperitoneal) in B6D2F1 (BDF1) mice
Inconclusive results and toxic doses are left out.
READOUT KIND: T/C

CCC(=O)NC1=C(N2CC2)C(=O)C(NC(=O)CC)=C(N2CC2)C1=O ... 113 % of control
CC[C@](O)(C(=O)O)c1cc2n(c(=O)c1CO)Cc1cc3ccccc3nc1-2 ... 117 % of control
CCC(=O)c1ccc2c(c1)N(CCCN1CCN(CCO)CC1)c1ccccc1S2 ... 89 % of control

----------
System: BDF1 mice, B16 melanoma ip, median survival T/C
RUN DESCRIPTION: NCI In Vivo Anticancer Drug Screen. Data for tumor model B16 Melanoma (intraperitoneal) in B6D2F1 (BDF1) mice
DETAILS: endpoint: median survival time; dose: 3.13 mg/kg/injection; schedule: Q01DX009 (ip); vehicle: saline; higher = longer survival
Inconclusive results and toxic doses are left out.
READOUT KIND: T/C

O=S(=O)(O)c1ccc(/C2=c3\cc/c([n-]3)=C(\c3ccc(S(=O)(=O)O)cc3)c3ccc([n-]3)/C(c3ccc(S(=O)(=O)O)cc3)=c3/cc/c([n-]3)=C(\c3ccc(S(=O)(=O)O)cc3)c3ccc2[n-]3)cc1.[Co] ... 111 % of control
CS(=O)(=O)OCCN1CCC2(CC1)SSC1(CCN(CCOS(C)(=O)=O)CC1)S2 ... 106 % of control
[Cl][Pt+2][Cl].[NH-]CCO.[NH-]CCO ... 100 % of control
NC(CSC(c1ccccc1)(c1ccccc1)c1ccccc1)C(=O)O (stereo not given) ... 109 % of control
CC1(C)N=C(N)N=C(N)N1c1ccc(CCCCc2ccc(S(=O)(=O)F)cc2Cl)c(Cl)c1 ... 117 % of control

----------
System: BDF1 mice, B16 melanoma ip, median survival T/C
RUN DESCRIPTION: NCI In Vivo Anticancer Drug Screen. Data for tumor model B16 Melanoma (intraperitoneal) in B6D2F1 (BDF1) mice
DETAILS: endpoint: median survival time; dose: 100.0 mg/kg/injection; schedule: Q01DX009 (ip); vehicle: saline with Tween-80; higher = longer survival
Protocol: The antitumor activity of compounds was measured in mice bearing transplantable tumors. Survival or tumor size were measured and the results are expressed as the measurement made in the treated group (T) divided by the measurement made in the vehicle treated control group (C). The tumor model used in this assay is B16 Melanoma (intraperitoneal) in B6D2F1 (BDF1) mice
Toxic doses and inconclusive results are not listed.
Each entry below lists one item and its recorded T/C value.
READOUT KIND: T/C

O=C(CC(NC(=O)OCc1ccccc1)c1nn[nH]n1)OCc1ccccc1 (configuration not stated) ... 107 % of control
O=C(O)C1CCCCC1C(=O)Nc1ccccc1C(F)(F)F (configuration not stated) ... 90 % of control
CCOC(=O)/C=C/c1ccc2c(c1)OCO2 ... 104 % of control
O=C(Nc1ccccc1)Nc1cccc(Cl)c1 ... 98 % of control
CNC(=O)Oc1ccc2ccccc2c1 ... 100 % of control
CC(=O)CCc1ccc(O)cc1 ... 90 % of control
COC1OC2COC(c3ccccc3)OC2C(O)C1N (configuration not stated) ... 90 % of control
c1ccc(-c2nc3ccc4ccccc4c3nc2-c2ccccc2)cc1 ... 100 % of control
O=C(Nc1ccc(Cl)cc1)OCCN1CCOCC1 ... 110 % of control
CC1(c2ccccc2)C(C#N)C(=O)NC(=O)C1C#N (configuration not stated) ... 89 % of control
Clc1ccc(C(c2ccccc2Cl)C(Cl)Cl)cc1 (configuration not stated) ... 95 % of control
Cc1cc(=O)[nH]c(Nc2ccccc2)n1 ... 105 % of control
CCNc1nc(NCC)nc(OC)n1 ... 95 % of control
O=C(c1ccncc1)c1c(Cc2ccccc2)ccc2ccccc12 ... 99 % of control
CCCCOC(=O)/C=C(\Br)C(=O)OCCCC ... 90 % of control
CCCc1ccc(OC)cc1 ... 90 % of control
CC(=O)NC(Cc1cc(I)c(OC(C)=O)c(I)c1)C(=O)O (configuration not stated) ... 97 % of control
NC(=O)c1ccc(-c2c3ccccc3cc3c2ccc2ccccc23)cc1 ... 96 % of control
COC(=O)CC(=O)C=P(c1ccccc1)(c1ccccc1)c1ccccc1 ... 113 % of control
C=CCNc1nc2c(s1)CCc1cc(OC)c(OC)cc1-2 ... 104 % of control
NNC(=O)CCC(=O)NN ... 102 % of control
CCCCOC(=O)C(C)OC(=O)Nc1cccc(Cl)c1 (configuration not stated) ... 88 % of control
O=S(=O)(Nc1ccc(-c2ccccc2)cc1)c1ccccc1 ... 91 % of control
O=[N+]([O-])c1cccc(C(O)C=C(C(F)(F)F)C(F)(F)F)c1 (configuration not stated) ... 86 % of control
CCOc1ccccc1NC(=O)Nc1ccccc1Cl ... 103 % of control
C1OCN2CSCC12 (configuration not stated) ... 106 % of control
O=C(Nc1ccccc1C(=O)O)c1cc([N+](=O)[O-])cc([N+](=O)[O-])c1 ... 95 % of control
